From: PubChem BioAssay (Tox21)

biological target: Cytochrome P450 2C19 (Homo sapiens); experiment: Cytochrome P450 Family 2 Subfamily C Member 19 (CYP2C19) small molecule antagonists: luciferase reporter qHTS assay (AID 1671197); settings: P450-Glo CYP2C19 enzyme, luciferin luminescence, 1 h; series mostly up to 115 µM; note: nearly all actives have a fitted effect of over 65% in size
Inconclusive results are not listed. Activity calls are given as the source filed them. Calls come from the whole dose curve; as a rule, active = well fitted inhibition curve with a large enough effect in the repeat runs; inconclusive = weak or mixed curves; inactive = no such curve, though single readings can be large or run the other way.
Answer with one of the outcomes given here: true = active, false = inactive

Some solved entries appear below for comparison.
Ask | Please let me know the test result on file for Cc1cc(C)n(CO)n1 .
Reply | false

Ask | Outcome logged for Cc1ccc(NC(=O)c2ccc(CN3CCN(C)CC3)cc2)cc1Nc1nccc(-c2cccnc2)n1 in this assay:
Reply | false

Ask | Hey, what did the test say about CC(C)=CCC[C@H](C)CCO ?
Reply | true

Ask | Outcome logged for CCCCCCCCNC in this assay:
Reply | true

Ask | Name the outcome recorded for CC1=C(C)C(=O)C(CCCCC#CCCCC#CCO)=C(C)C1=O in the assay.
Reply | true

Ask | Dear all, I need the recorded test outcome for COC(=O)Cc1cccc2ccccc12 , thank you.
Reply | true

Ask | Each compound tested received a call. Report the one for Cc1ccc(Cl)c(OCC(O)CNC(C)(C)C)c1 (stereo unspecified) .
Reply | false

Ask | // outcome(item) with item = COc1ccc(/C=C/c2cc(OC)cc(=O)o2)cc1
Reply | true

Ask | Would you mind telling me which call this test gave CC(C)CCCCCOC(=O)CS ?
Reply | false

Ask | Recorded test outcome, item CCC(=O)O[C@@H]1C[C@H]2CC[C@]1(C)C2(C)C
Reply | false

---
Ask | # fetch the recorded call for Sc1nc(S)nc(S)n1 here
Reply | false

Ask | Test call, this compound: O=c1[nH]nc(-c2ccc([N+](=O)[O-])o2)o1
Reply | true

Ask | Could you kindly confirm the outcome this assay logged for COc1ccnc2c1CCCCC2S(=O)c1nc2ccccc2[nH]1 (stereo unspecified) ?
Reply | true

Ask | Fill in: this test's call for CC(C)C/C=C(\C=O)c1ccccc1 is ___
Reply | true

* * *

experiment: qHTS assay to identify small molecule antagonists of the TGF-beta/Smad signaling pathway - cell viability counter screen (AID 1346824); conditions: SBE-bla HEK293T viability, CellTiter-Glo luminescence; series mostly up to 76.8 µM; note: % is set by controls: 0 for no effect and ±100 for the full control effect; nearly all actives have a fitted effect of over 50% in size
Results filed as inconclusive are left out. Activity calls are given as the source filed them. Calls follow the shape of the dose curve; as a rule, active = well fitted cell-killing curve with a large enough effect in the repeat runs; inconclusive = weak or mixed curves; inactive = flat fitted curve, though single readings scatter.
MEASURED QUANTITY: viability change, negative = cytotoxic

Below are worked cases with known answers.
Ask | Would you mind telling me what viability change, negative = cytotoxic value was observed for CC(O)C(C)O (centres undefined) ?
Reply | inactive

Ask | Quick one: viability change, negative = cytotoxic of O=C(C1CCCCC1)N1CC(=O)N2CCCc3ccccc3C2C1 (centres undefined) ?
Reply | inactive

Ask | Consider the molecule CC(C(=O)O)c1ccc2c(c1)Cc1cccnc1O2 (centres undefined) and give its measured viability change, negative = cytotoxic.
Reply | inactive

Ask | // returns reported viability change, negative = cytotoxic for input Clc1nc2ccccc2nc1Cl
Reply | inactive

Ask | For the molecule shown here, CCC(C)CCCC(C)(C)O (centres undefined) , give the reported viability change, negative = cytotoxic.
Reply | inactive

Others:
Ask | Fill in: viability change, negative = cytotoxic of CC(C)(O)C(=O)O is ___
Reply | inactive

Ask | So what does the record say about viability change, negative = cytotoxic for O=[N+]([O-])c1ccc(Cl)cc1Cl ?
Reply | inactive

Ask | Look up viability change, negative = cytotoxic for this molecule: Clc1cccc(C(c2ccc3nc[nH]c3c2)n2ccnc2)c1 (centres undefined)
Reply | inactive

Ask | For the molecule shown here, CCc1cnc(C(=O)O)c(C(=O)O)c1 , give the reported viability change, negative = cytotoxic.
Reply | inactive

* * *

test: Human pregnane X receptor (PXR) small molecule agonists, qHTS cell viability counter screen (AID 1346977); details: PXR-Luc HepG2 viability, CellTiter-Fluor, 24 h; series mostly up to 92.4 µM; note: % is set by controls: 0 for no effect and ±100 for the full control effect; nearly all actives have a fitted effect of over 50% in size
Inconclusive results are not listed. Activity calls are given as the source filed them. Calls follow the shape of the dose curve; as a rule, active = well fitted cell-killing curve with a large enough effect in the repeat runs; inconclusive = weak or mixed curves, or effect the other way; inactive = flat fitted curve, though single readings scatter.
Please reply with one of these outcomes: T (active), F (inactive)

Solved entries:
Ask | Given CC/C=C\CCO , state the outcome it received in this test.
Reply | F

Ask | I'd appreciate the recorded outcome for CCC[Si](OC)(OC)OC from this test.
Reply | F

Ask | # fetch the recorded call for CC(=O)CC/C=C(\C)CC/C=C(\C)CC/C=C(\C)CCC=C(C)C here
Reply | F

Ask | Called result for C=Cc1ccc(C=C)cc1
Reply | F

# next compound below
Ask | Hi, sorry to bother you, what did the test record for CCCCOc1ccc(N)cc1 ?
Reply | F

* * *

assay: A CellTox Green Cytotoxicity Assay to monitor cytotoxicity in HEK293 cells - 16 hour (AID 1224888); settings: CellTox Green fluorescence; series mostly up to 76.8 µM; note: % is set by controls: 0 for no effect and ±100 for the full control effect; nearly all actives have a fitted effect of over 35% in size
Records with an inconclusive call do not appear. Activity calls are given as the source filed them. The call rests on the fitted dose curve; in most records, active means well fitted activation curve with a large enough effect in the repeat runs; inconclusive means weak or mixed curves; inactive means flat fitted curve, though single readings scatter.
MEASURED QUANTITY: outcome

Ask | Item under review: Clc1nc2ccccc2nc1Cl . Reported outcome?
Reply | inactive

Ask | Requested field: outcome. Item: CCOC(OCC)OCC
Reply | inactive

Ask | What does the record list as outcome for COC(=O)/C=C/C(C)=C\C=C\C(C)=C\C=C\C=C(C)\C=C\C=C(C)\C=C\C(=O)O ?
Reply | inactive

Ask | State the recorded outcome for this entry: CC(CN=Cc1ccccc1O)N=Cc1ccccc1O (stereo not drawn)
Reply | inactive

---
Ask | Would you kindly share the measured outcome for CCc1cnc(C(=O)O)c(C(=O)O)c1 ?
Reply | inactive

Ask | outcome lookup needed for O=C(O)c1cccc(C(=O)O)c1C(=O)O , thanks.
Reply | inactive

Ask | Need outcome, item S=c1[nH][nH]c(=S)s1
Reply | inactive

Ask | So what does the record say about outcome for Cc1c(-c2cccnc2)c2ccccc2n1CCCCC(=O)O ?
Reply | inactive

Ask | # input compound: CC(=O)Nc1cccc(N)c1 ; wanted: its outcome
Reply | inactive

Ask | I am curious: what outcome value has been reported for CC(=O)CC/C=C(\C)CC/C=C(\C)CC/C=C(\C)CCC=C(C)C ?
Reply | inactive

Ask | Item CC(C)C[C@H](NC(=O)[C@H](Cc1ccccc1)NC(=O)c1cnccn1)B(O)O has what recorded outcome?
Reply | inactive

Ask | // query outcome value for entry CC(CCl)OC(C)CCl (stereo not drawn)
Reply | inactive

Ask | Reported outcome, compound Cc1cc(C)c(C)c(O)c1 : ____
Reply | inactive

* * *

Assay: A CellTox Green Cytotoxicity Assay to monitor cytotoxicity in HEK293 cells - 0 hour (AID 1224869); note: % is set by controls: 0 for no effect and ±100 for the full control effect; nearly all actives have a fitted effect of over 50% in size
Conditions: CellTox Green fluorescence; series mostly up to 76.8 µM
Excerpt: National Center for Advancing Translational Sciences [NCATS] NIH Chemical Genomics Center [NCGC] U.S. Environmental Protection Agency [EPA] National Institutes of Environmental Health Sciences [NIEHS] National Toxicology Program [NTP] Cell-based models are critical for drug discovery. […] Viable cells produce no appreciable increases in fluorescence. Therefore, the fluorescence signal produced by the binding interaction with dead cell DNA is proportional to cytotoxicity. […]
Calls of active or inactive are those of the source. Calls follow the shape of the dose curve; as a rule, active = well fitted activation curve with a large enough effect in the repeat runs; inconclusive = weak or mixed curves; inactive = flat fitted curve, though single readings scatter.
MEASURED QUANTITY: cytotoxicity

// solved cases for cytotoxicity follow
Ask | Return reported cytotoxicity; argument: CC(=O)CC/C=C(\C)CC/C=C(\C)CC/C=C(\C)CCC=C(C)C
Reply | inactive

Ask | Form field: reported cytotoxicity of Nc1nc(Cl)nc2c1ncn2[C@H]1C[C@H](O)[C@@H](CO)O1
Reply | inactive

Ask | Fill blank: measured cytotoxicity of the compound CCC(C(=O)O)c1ccc(N2Cc3ccccc3C2=O)cc1 (centres undefined) is ____.
Reply | inactive

Ask | I'd like to know its cytotoxicity. The compound in question is CC(=O)Nc1ccn(C2COC(COC(=O)c3ccccc3)O2)c(=O)n1 (centres undefined)
Reply | inactive

Ask | For the compound O=C(O)c1ccc(O)c(O)c1 , what cytotoxicity is on record?
Reply | inactive

More entries:
Ask | Please report the recorded cytotoxicity for C[C@H]1C[C@H]2[C@@H]3CCC4=CC(=O)C=C[C@]4(C)[C@@]3(F)[C@@H](O)C[C@]2(C)[C@@]1(O)C(=O)COP(=O)(O)O .
Reply | inactive

Ask | Sample CC1=CC(=C(c2ccc(N)cc2)c2ccc(N)cc2)C=CC1=N — what was its cytotoxicity?
Reply | -6.03% [at 6.97 µM] (inactive)

Ask | Given the compound CCN(CC)CC(=O)OCC(=O)[C@@]1(O)CC[C@H]2[C@@H]3CCC4=CC(=O)CC[C@]4(C)[C@H]3[C@@H](O)C[C@@]21C , what is its reported cytotoxicity?
Reply | inactive

* * *

experiment: qHTS assay to identify small molecule antagonists of the peroxisome proliferator-activated receptor delta (PPARd) signaling pathway - cell viability counter screen (AID 743213); details: PPARd-bla HEK293H viability, CellTiter-Glo luminescence, 17 h; series mostly up to 62 µM; note: % is set by controls: 0 for no effect and ±100 for the full control effect; nearly all actives have a fitted effect of over 50% in size
Results filed as inconclusive are left out. Activity calls are given as the source filed them. The call rests on the fitted dose curve; in most records, active means well fitted cell-killing curve with a large enough effect in the repeat runs; inconclusive means weak or mixed curves; inactive means no such curve, though single readings can be large or run the other way.
Tick one outcome: 1.0 for active, 0.0 for inactive

Sample answers from the record:
Ask | I'd appreciate the recorded outcome for Sc1nc(S)nc(S)n1 from this test.
Reply | 0.0

Ask | Give the logged outcome of this assay for the following molecule: CC(C)=CCC[C@H](C)CCO
Reply | 0.0

Ask | Hi, sorry to bother you, what did the test record for CCc1ccc(C(=O)C(C)CN2CCCCC2)cc1 (centres undefined) ?
Reply | 0.0

Ask | In this assay, the call recorded for CCCCCCCCS was what?
Reply | 0.0

Further cases:
Ask | Please state the recorded outcome for this molecule: C[C@H]1C[C@H]2[C@@H]3CCC4=CC(=O)C=C[C@]4(C)[C@@]3(F)[C@@H](O)C[C@]2(C)[C@@]1(O)C(=O)COP(=O)(O)O
Reply | 0.0

Ask | GET /call?item= FC1(F)C(F)(F)C(F)(F)C2(F)C(F)(C1(F)F)C(F)(F)C(F)(F)C1(F)C(F)(F)C(F)(F)C(F)(F)C(F)(F)C12F (centres undefined) returns the recorded outcome of this test.
Reply | 0.0

Ask | Test call for this molecule, please: OCCOc1cccc(OCCO)c1
Reply | 0.0

Ask | Answer briefly: the call reported for O=C(O)COCC(=O)O in this assay.
Reply | 0.0

Ask | Hi, do you know how CCCCCCCCCCCCSC#N came out in this test?
Reply | 0.0

Ask | Which outcome did this test record for the molecule CCOC(C)OCC ?
Reply | 0.0

Ask | Look up the recorded call for CC(=O)Oc1cccc2c1C(=O)c1c(OC(C)=O)cc(C(=O)O)cc1C2=O in this test.
Reply | 0.0
